tested-system: IKZF2 (Homo sapiens (Human), UniProt Q96SW2+Q9UKS7)
Sequence (Q9UKS7 whole entry): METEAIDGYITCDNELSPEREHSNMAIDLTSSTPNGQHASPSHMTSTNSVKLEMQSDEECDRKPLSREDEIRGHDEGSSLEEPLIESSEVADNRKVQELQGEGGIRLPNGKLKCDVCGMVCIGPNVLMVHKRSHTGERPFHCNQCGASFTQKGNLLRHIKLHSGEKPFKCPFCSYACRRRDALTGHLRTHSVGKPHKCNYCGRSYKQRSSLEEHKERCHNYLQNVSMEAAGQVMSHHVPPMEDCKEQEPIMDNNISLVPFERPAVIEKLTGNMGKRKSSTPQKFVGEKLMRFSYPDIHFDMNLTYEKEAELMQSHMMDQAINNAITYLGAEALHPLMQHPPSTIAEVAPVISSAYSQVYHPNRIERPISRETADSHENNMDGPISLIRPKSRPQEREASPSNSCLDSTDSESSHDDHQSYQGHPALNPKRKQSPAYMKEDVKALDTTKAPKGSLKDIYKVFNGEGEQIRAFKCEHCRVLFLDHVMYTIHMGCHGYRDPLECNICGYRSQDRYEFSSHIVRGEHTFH
Sequence (Q96SW2 whole entry): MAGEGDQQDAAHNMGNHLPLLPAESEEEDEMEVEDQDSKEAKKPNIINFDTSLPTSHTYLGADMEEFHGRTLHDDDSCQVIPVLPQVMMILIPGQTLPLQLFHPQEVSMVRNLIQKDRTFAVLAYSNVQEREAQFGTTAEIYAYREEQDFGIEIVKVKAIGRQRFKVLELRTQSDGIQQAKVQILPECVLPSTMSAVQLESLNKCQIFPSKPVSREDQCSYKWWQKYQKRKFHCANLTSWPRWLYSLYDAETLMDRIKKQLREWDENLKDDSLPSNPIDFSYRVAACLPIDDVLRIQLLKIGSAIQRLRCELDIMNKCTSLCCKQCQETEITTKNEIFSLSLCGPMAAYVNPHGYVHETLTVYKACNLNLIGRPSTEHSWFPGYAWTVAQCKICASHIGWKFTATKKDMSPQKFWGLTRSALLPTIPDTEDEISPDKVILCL
Sequence (Q16531 whole entry partner): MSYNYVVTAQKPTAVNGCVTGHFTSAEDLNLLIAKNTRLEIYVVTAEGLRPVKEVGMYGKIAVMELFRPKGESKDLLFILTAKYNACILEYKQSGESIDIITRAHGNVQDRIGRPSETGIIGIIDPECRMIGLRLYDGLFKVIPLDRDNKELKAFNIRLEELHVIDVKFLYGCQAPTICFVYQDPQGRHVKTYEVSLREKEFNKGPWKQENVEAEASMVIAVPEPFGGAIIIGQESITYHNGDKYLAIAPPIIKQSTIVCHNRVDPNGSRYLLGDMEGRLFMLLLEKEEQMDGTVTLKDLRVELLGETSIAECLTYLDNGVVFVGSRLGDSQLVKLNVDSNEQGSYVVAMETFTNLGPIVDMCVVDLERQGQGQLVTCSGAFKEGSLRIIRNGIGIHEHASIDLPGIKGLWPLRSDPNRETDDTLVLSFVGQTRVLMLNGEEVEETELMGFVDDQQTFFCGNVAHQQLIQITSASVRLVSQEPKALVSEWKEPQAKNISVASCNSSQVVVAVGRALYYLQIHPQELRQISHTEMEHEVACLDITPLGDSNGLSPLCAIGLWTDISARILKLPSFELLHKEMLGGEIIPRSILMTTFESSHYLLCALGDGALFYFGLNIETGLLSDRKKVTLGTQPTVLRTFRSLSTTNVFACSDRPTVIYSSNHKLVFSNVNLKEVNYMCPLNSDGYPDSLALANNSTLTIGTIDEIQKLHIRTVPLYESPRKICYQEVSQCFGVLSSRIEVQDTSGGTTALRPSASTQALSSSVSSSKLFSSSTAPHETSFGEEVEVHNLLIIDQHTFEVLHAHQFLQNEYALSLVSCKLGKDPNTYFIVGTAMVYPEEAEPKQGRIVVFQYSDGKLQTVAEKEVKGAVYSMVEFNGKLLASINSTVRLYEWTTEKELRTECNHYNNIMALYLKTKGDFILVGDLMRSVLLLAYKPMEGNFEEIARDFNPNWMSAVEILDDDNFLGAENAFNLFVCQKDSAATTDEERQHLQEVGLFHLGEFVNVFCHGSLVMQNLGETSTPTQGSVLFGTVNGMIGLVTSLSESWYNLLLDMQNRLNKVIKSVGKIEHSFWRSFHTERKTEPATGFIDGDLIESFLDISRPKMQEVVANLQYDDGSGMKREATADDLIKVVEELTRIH
assay-name: IKZF2 HiBiT Assay (Jurkat-IKZF2-HiBiT cell line)
Assay type: cell-based
applied-conditions: Jurkat-IKZF2-HiBiT cells, 24 hours; read-out: HiBit assay degradation analysis DC50
readout-label: DC50

Check out these entries, answers already filled in.
> print(dat)
                                   compound                             tested.system     result
1  COc1cc(CN2CCC3(CC2)COc2c3ccc3c2CN([C@H]2CCC(=O)NC2=O)C3=O)cc(-c2cnn(C)c2)c1 [Compound A280]  IKZF2 (Homo sapiens (Human), UniProt Q96SW2+Q9UKS7)  < 0.05 µM
2  COCCn1cc2cc(CN3CCC4(CC3)COc3c4ccc4c3CN(C3CCC(=O)NC3=O)C4=O)ccc2n1 (stereo not shown) [Compound A341]  IKZF2 (Homo sapiens (Human), UniProt Q96SW2+Q9UKS7)   > 0.5 µM
3  O=C1CCC(N2Cc3c(ccc4c3OCC43CCN(Cc4ccccc4-n4ccnc4)CC3)C2=O)C(=O)N1 (stereo not shown) [Compound A149]  IKZF2 (Homo sapiens (Human), UniProt Q96SW2+Q9UKS7)   > 0.5 µM
4  Cn1ncc(-c2cccc(CN3CCC4(CC3)COc3c4ccc4c3CN([C@H]3CCC(=O)NC3=O)C4=O)c2)n1 [Compound A296]  IKZF2 (Homo sapiens (Human), UniProt Q96SW2+Q9UKS7)  < 0.05 µM

Respectfully, I request DC50 for each entry included below.
1. O=C1CC[C@H](N2Cc3c(ccc4c3OCC43CCN(Cc4cc(F)cc(-c5cnn(C6COC6)c5)c4)CC3)C2=O)C(=O)N1 [Compound A276]
2. O=C1CCC(N2Cc3c(ccc4c3OCC43CCN(Cc4cccc5nccnc45)CC3)C2=O)C(=O)N1 (stereo not shown) [Compound A47]

Result:
< 0.05 µM
> 0.5 µM

Q: // fetch DC50 given entry O=C1CCC(N2Cc3c(ccc4c3OCC43CCN(Cc4cncc(Cl)c4)CC3)C2=O)C(=O)N1 (stereo not shown) [Compound A248]
Result: > 0.5 µM
